assay: chemical genetic growth profiling, strain panel (AID 1159580);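 note: tested at 20 µM; growth read once vehicle control cultures reached saturation at 30 °C; 1 = growth at the plate median or of vehicle wells; lower values mean less growth of the strain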; details: S. cerevisiae deletion strains, growth OD, locus YOR231W, strain MKK1, active compounds read low
Out of some 5,500 compounds screened, about 2,000 (36%) were called active. Inconclusive results (about 18%) are left out. Some of the results follow. Where a SMILES comes first, the peptide text is derived from it. Bridges are numbered along the chain shown (N, C = ends). [ ]: non-standard residue; d: D form. The star is where a group is joined. ξ: configuration not given here. ξDab(CH2SO3H) = NC(CCNCS(=O)(=O)O)C(=O)O; Heptanoyl(6-Me) = CC(C)CCCCC(=O)*; Dab = NCC[CH](N)C(=O)O
# Lookup of reported normalized growth keyed by entry

The examples below pair each entry with its known result.
[
  {
    "COMPOUND": "CC1=NS(=O)(=O)c2cc(Cl)ccc2N1",
    "normalized growth": "0.978 (inactive)"
  },
  {
    "COMPOUND": "CCC(C)C1NC(=O)C(CCNCS(=O)(=O)O)NC(=O)C(NC(=O)C(CCNCS(=O)(=O)O)NC(=O)C(NC(=O)C(CCNCS(=O)(=O)O)NC(=O)CCCCC(C)C)C(C)O)CCNC(=O)C(C(C)O)NC(=O)C(CCNCS(=O)(=O)O)NC(=O)C(CCNCS(=O)(=O)O)NC(=O)C(C(C)CC)NC1=O (centres undefined) ({Heptanoyl(6-Me)}-[ξDab(CH2SO3H)]T[ξDab(CH2SO3H)][Dab][ξDab(CH2SO3H)]II[ξDab(CH2SO3H)][ξDab(CH2SO3H)]T; lactam 4-C; configuration not given here)",
    "normalized growth": "0.998 (inactive)"
  },
  {
    "COMPOUND": "Cc1ccnc(NS(=O)(=O)c2ccc(N)cc2)n1",
    "normalized growth": "0.98 (inactive)"
  },
  {
    "COMPOUND": "CC1(C)CC[C@]2(C(=O)O)CC[C@]3(C)C(=CCC4[C@@]5(C)CC[C@@H](O)C(C)(C)C5CC[C@]43C)C2C1 (some centres undefined)",
    "normalized growth": "0.997 (inactive)"
  }
]

Then this compound:
Req: Identify the reported normalized growth for the following entry. COc1cccc(NC(=S)NC2CC(C)CC(C)(C)C2)c1 (centres undefined)
Resp: 1.05 (inactive)
